tested on: HEK293T; experiment: HEK293T 72 h CellTiter-Glo cytotoxicity; settings: 72 h
Counter-ions that a name gives are not always drawn.
Please respond with reported HEK293T 72-hour cytotoxicty Sinf Average for every item in the list.
# value in %; strip the unit string

stdin: Value lookup for HEK293T 72-hour cytotoxicty Sinf Average; key = OC(CNCC(O)C1CCc2cc(F)ccc2O1)C1CCc2cc(F)ccc2O1 (stereo not drawn) [Nebivolol HCl]
stdout: -106

stdin: Param item: COc1ccc2cc1Oc1ccc(cc1)C[C@H]1c3cc(c(OC)cc3CCN1C)Oc1c(OC)c(OC)cc3c1[C@H](C2)N(C)CC3
stdout: -101

stdin: Another molecule to look at: CC(CN(C)C)CN1c2ccccc2CCc2ccccc21 (stereo not drawn) [Trimipramine maleate]
stdout: -102

stdin: Then this molecule: Cc1c(O)cccc1C(=O)N[C@@H](CSc1ccccc1)[C@H](O)CN1C[C@H]2CCCC[C@H]2C[C@H]1C(=O)NC(C)(C)C [Nelfinavir mesylate]
stdout: -100

stdin: // next record CN1[C@@H]2CC[C@H]1C[C@@H](N1Cc3ccc4ccccc4c3C1=O)C2
stdout: -100

stdin: And Cc1ccc(NC(=O)c2ccc(CN3CCN(C)CC3)cc2)cc1Nc1nccc(-c2cccnc2)n1 [Imatinib mesylate] ?
stdout: -100

stdin: Item: CCC(CC)COC(=O)[C@H](C)NP(=O)(OC[C@H]1O[C@@](C#N)(c2ccc3c(N)ncnn23)[C@H](O)[C@@H]1O)Oc1ccccc1 (stereo partly drawn) [Remdesivir - control]
stdout: -95

stdin: Likewise for CCCCCCOC(=O)NC(=N)c1ccc(NCc2nc3cc(C(=O)N(CCC(=O)OCC)c4ccccn4)ccc3n2C)cc1 [Dabigatran etexilate mesilate] ?
stdout: -101

stdin: Same lookup for CCN(CC)Cc1cc(Nc2ccnc3cc(Cl)ccc23)ccc1O , please.
stdout: -87

====

For each of the molecules below, state its EC50.
test system: SARS-CoV-2; test: microbe, parasite or virus in culture; assay type: cell-based; conditions: Severe acute respiratory syndrome coronavirus 2, HeLa-ACE2; read-out: HeLa-ACE2 TOA CoV-2 EC50 GeoMean
Counter-ions that a name gives are not always drawn.

stdin: Give the measured EC50 of Cc1c(O)cccc1C(=O)N[C@@H](CSc1ccccc1)[C@H](O)CN1C[C@H]2CCCC[C@H]2C[C@H]1C(=O)NC(C)(C)C [Nelfinavir mesylate] .
stdout: > 8.35 µM

stdin: Can you handle NC1(c2ccc(-c3nc4ccn5c(=O)[nH]nc5c4cc3-c3ccccc3)cc2)CCC1 next?
stdout: > 9.39 µM

stdin: Request: COc1ccc2c(O[C@@H]3C[C@H]4C(=O)N[C@]5(C(=O)NS(=O)(=O)C6CC6)C[C@H]5/C=C\CCCCN(C)C(=O)[C@@H]4C3)cc(-c3nc(C(C)C)cs3)nc2c1C
stdout: > 8.62 µM

====

tested on: HeLa-ACE2 cells; test: cells; conditions: Homo sapiens, HeLa-ACE2, read-out: HeLa-ACE2 cell count EC50 GeoMean
pEC50: −log10 of the molar value. Counter-ions that a name gives are not always drawn.
Assign pEC50 to each entry below.

stdin: Request the reported pEC50 associated with CCCCN1CC[C@H](c2ccc(N(C)C)cc2)[C@@H](COc2ccc(C(F)(F)F)cc2)C1
stdout: < 5.05

stdin: Next compound: CC(C)(C)Cn1c(N)nc2ccc(-c3[nH]c(C(C)(C)C)nc3-c3ccc(F)cc3)nc21 [Ralimetinib mesylate/LY2228820, Ralimetinib mesylate]
stdout: < 5.16

stdin: Let us now turn to CCC(CC)COC(=O)[C@H](C)NP(=O)(OC[C@H]1O[C@@](C#N)(c2ccc3c(N)ncnn23)[C@H](O)[C@@H]1O)Oc1ccccc1 (some centres unmarked) [Remdesivir - control]
stdout: < 5.92

stdin: And what about the compound C=CC(=O)Nc1cc(Nc2nccc(-c3cn(C)c4ccccc34)n2)c(OC)cc1N(C)CCN(C)C ?
stdout: < 5.37

stdin: Now consider CCC(CC)COC(=O)[C@H](C)N[P@](=O)(OC[C@H]1O[C@@](C#N)(c2ccc3c(N)ncnn23)[C@H](O)[C@@H]1O)Oc1ccccc1 and answer again.
stdout: < 5.02

stdin: Repeat for the following compound: CCOC(=O)[C@@H]1O[C@H]1C(=O)N[C@@H](CC(C)C)C(=O)N1CCN(Cc2ccc(OC)c(OC)c2OC)CC1
stdout: < 5.29

stdin: Try this compound too: COc1cc(C[C@H]2c3cc(OC)c(OC)cc3CCN2C)c(Oc2cc3c(cc2OC)-c2c(OC)c(OC)cc4c2[C@H](C3)N(C)CC4)cc1OC
stdout: < 5.02

stdin: Now consider Cc1cccc(/C=N/Nc2cc(N3CCOCC3)n3nc(-c4ccncc4)cc3n2)c1 and answer again.
stdout: < 5.02

Reference source for all entries: paper PMC8175350
